Below: a set of entries, each annotated with reported binding signal.
test system: GII.4 (Grimsby) VLP, major capsid protein (Human norovirus GII.4 (Grimsby virus)); experiment: ELASA; details: ELASA: VLPs 3 ug/ml coated, blocked with 5% skim milk in PBST plus unrelated DNA, 1 uM biotinylated aptamer (10 nM-2 uM for Kd), 1 h at RT, PBST washes

# chain sequence, binding signal
measured = [
    ("AGTATACGTATTACCTGCAGCCCATGTTTTGTAGGTGTAATAGGTCATGTTAGGGTTTCTGCGATATCTCGGAGATCTTGC [SMV-21]", "6.4 T/N ratio"),
    ("AGTATACGTATTACCTGCAGCCACCAGTGTGTTGAGGTTTGAGCACACTGATAGAGTGTCACGATATCTCGGAGATCTTGC [SMV-19]", "9.6 T/N ratio"),
    ("AGTATACGTATTACCTGCAGCCATCTGTGTGAAGACTATATGGCGCTCACATATTTCTTTCCGATATCTCGGAGATCTTGC [SMV-25]", "10.4 T/N ratio"),
    ("AGTATACGTATTACCTGCAGCTGACCGAGTGTCTGGTCATTTTCGATGTCTGTTGTTAGGCCGATATCTCGGAGATCTTGC [SMV-26]", "3.2 T/N ratio"),
]
